- Test system: Escherichia coli TOP10
- measurement-description: shrunken log2 fold change of peptide-encoding DNA abundance (4.5 h post-induction vs induction); higher = less antimicrobial activity (less host growth inhibition)
- stated-conditions: time post-induction: 4.5 h; library: site-saturation at positions 5, 18, 19, 20
Label label 1 when shrunken log2 fold change is at or above -0.05; otherwise label label 0.

Reported shrunken log2 fold change at or above -0.05? `RRIRFRPPRLPRPRPRPARCPRP` label 1

Could you verify whether the entry `RRIRFRPPRLPRPRPRPLMDPRP` shows shrunken log2 fold change of no less than -0.05? label 0

shrunken log2 fold change >= -0.05 for `RRIRARPPRLPRPRPRPVVEPRP` ? label 1

Is reported shrunken log2 fold change greater than or equal to -0.05 here: `RRIRWRPPRLPRPRPRPMYEPRP` label 0

Could you please find out whether `RRIRRRPPRLPRPRPRPTQVPRP` has shrunken log2 fold change that meets -0.05 or exceeds it? label 1

Could you verify whether the entry `RRIRYRPPRLPRPRPRPSGKPRP` shows shrunken log2 fold change of no less than -0.05? label 0

Is it the case that `RRIRHRPPRLPRPRPRPAYYPRP` has shrunken log2 fold change reaching or exceeding -0.05? label 0

Dear colleague, could you confirm whether `RRIRLRPPRLPRPRPRPRFWPRP` has shrunken log2 fold change at or above -0.05? label 1

----------
Please go through the items and note down their shrunken log2 fold change.
- Tested on: Escherichia coli TOP10
- measurement-description: shrunken log2 fold change of peptide-encoding DNA abundance (4.5 h post-induction vs induction); higher = less antimicrobial activity (less host growth inhibition)
- stated-conditions: time post-induction: 4.5 h; library: site-saturation at positions 5, 18, 19, 20
Write no unit; give the number alone.

Recorded shrunken log2 fold change of `RRIRKRPPRLPRPRPRPWYNPRP` , please. -0.00192

Value lookup for shrunken log2 fold change; key = `RRIRYRPPRLPRPRPRPYQSPRP` 0.0169

Name the recorded shrunken log2 fold change for `RRIRTRPPRLPRPRPRPTEVPRP` . -0.199

What value of shrunken log2 fold change has been reported for the following sequence? `RRIRNRPPRLPRPRPRPYKCPRP` -0.13

Which shrunken log2 fold change reading was recorded for the sequence `RRIRKRPPRLPRPRPRPIQRPRP` ? -0.0846

Looking for the measured shrunken log2 fold change of `RRIRWRPPRLPRPRPRPMRQPRP` , can you help? -0.0376

Which shrunken log2 fold change value is on record for `RRIRLRPPRLPRPRPRPLETPRP` ? -0.0757

For `RRIRLRPPRLPRPRPRPRKHPRP` , what is its reported shrunken log2 fold change? -0.0984

----------
- Test system: Escherichia coli TOP10
- measurement-description: shrunken log2 fold change of peptide-encoding DNA abundance (4.5 h post-induction vs induction); higher = less antimicrobial activity (less host growth inhibition)
- stated-conditions: time post-induction: 4.5 h; library: site-saturation at positions 5, 18, 19, 20
observation-type: shrunken log2 fold change

What does the data say about its shrunken log2 fold change? Entry: `RRIRTRPPRLPRPRPRPDGFPRP` -0.0487

Need shrunken log2 fold change, item `RRIRLRPPRLPRPRPRPNDTPRP` -0.302

Fill in the blank: the reported shrunken log2 fold change of `RRIRVRPPRLPRPRPRPTSWPRP` is ____. 0.383

Item under review: `RRIRLRPPRLPRPRPRPHTNPRP` . Reported shrunken log2 fold change? -0.377

Which shrunken log2 fold change reading was recorded for the sequence `RRIRWRPPRLPRPRPRPHFAPRP` ? 0.046

What measured shrunken log2 fold change goes with `RRIRARPPRLPRPRPRPWRIPRP` ? -0.0489

Look up shrunken log2 fold change for this sequence: `RRIRPRPPRLPRPRPRPGSFPRP` 0.0277

Request the reported shrunken log2 fold change associated with `RRIRLRPPRLPRPRPRPQLVPRP` 0.144

Tell me the measured shrunken log2 fold change of `RRIRIRPPRLPRPRPRPACHPRP` , please. -0.12

Dear colleague, I am looking for the recorded shrunken log2 fold change of the following sequence: `RRIRHRPPRLPRPRPRPMITPRP` -0.658

Field request: shrunken log2 fold change | item: `RRIRKRPPRLPRPRPRPGNIPRP` -0.0196

Report shrunken log2 fold change for `RRIRSRPPRLPRPRPRPVAIPRP` please. -0.28

Fill blank: measured shrunken log2 fold change of the sequence `RRIRFRPPRLPRPRPRPSQVPRP` is ____. -0.398

// query shrunken log2 fold change value for entry `RRIRMRPPRLPRPRPRPKGEPRP` 1.27

Could you share which shrunken log2 fold change value was measured for `RRIRNRPPRLPRPRPRPDFPPRP` ? -0.0345

Need shrunken log2 fold change, item `RRIRVRPPRLPRPRPRPRCGPRP` -0.0269

Name the reported shrunken log2 fold change value associated with the sequence `RRIRVRPPRLPRPRPRPMIKPRP` -0.156

Report shrunken log2 fold change for `RRIRARPPRLPRPRPRPWLNPRP` please. -0.175

Request the reported shrunken log2 fold change associated with `RRIRYRPPRLPRPRPRPYAVPRP` -0.85

Report shrunken log2 fold change for `RRIRERPPRLPRPRPRPTMEPRP` please. -0.116

Please report the recorded shrunken log2 fold change for `RRIRARPPRLPRPRPRPDNPPRP` . 0.0396

Requested read-out: shrunken log2 fold change. Entry: `RRIRMRPPRLPRPRPRPISRPRP` 0.074

Could you tell me which shrunken log2 fold change is on file for `RRIRHRPPRLPRPRPRPCACPRP` ? -0.176

Which measured shrunken log2 fold change value corresponds to `RRIRDRPPRLPRPRPRPYDYPRP` ? -0.097

GET /values?readout=shrunken log2 fold change&item= `RRIRKRPPRLPRPRPRPEDYPRP` 1.15

// returns reported shrunken log2 fold change for input `RRIRNRPPRLPRPRPRPAHAPRP` 0.116

Need shrunken log2 fold change of `RRIRARPPRLPRPRPRPPDQPRP` , thanks. 1.16

Which measured shrunken log2 fold change value corresponds to `RRIRHRPPRLPRPRPRPFDKPRP` ? -0.118

Report shrunken log2 fold change for `RRIRVRPPRLPRPRPRPKTYPRP` please. 0.325

Fill in: shrunken log2 fold change of `RRIRCRPPRLPRPRPRPMWTPRP` is ___ -0.0185

Form field: reported shrunken log2 fold change of `RRIRCRPPRLPRPRPRPSYTPRP` -0.748

Recorded shrunken log2 fold change of `RRIRQRPPRLPRPRPRPWSTPRP` , please. -0.0264

----------
- Test system: Escherichia coli TOP10;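 also: peptides expressed intracellularly from a pBAD plasmid library in pooled LB shake-flask culture, induced with 0.3% L-arabinose, DNA abundance read by NGS, three biological replicates, DESeq2 with apeglm shrinkage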
- measurement-description: shrunken log2 fold change of peptide-encoding DNA abundance (4.5 h post-induction vs induction); higher = less antimicrobial activity (less host growth inhibition)
- stated-conditions: time post-induction: 4.5 h; library: site-saturation at positions 5, 18, 19, 20
observation-type: shrunken log2 fold change
In your answer, state the number alone without any accompanying words.

Which shrunken log2 fold change value belongs to `RRIRHRPPRLPRPRPRPRQDPRP` ? -0.189

Query (sequence): `RRIRKRPPRLPRPRPRPLDPPRP` ; field requested: shrunken log2 fold change 0.613

# lookup: shrunken log2 fold change of `RRIRPRPPRLPRPRPRPYGAPRP` -0.306

Give the measured shrunken log2 fold change of `RRIRQRPPRLPRPRPRPGQHPRP` . -0.0301

So what does the record say about shrunken log2 fold change for `RRIRGRPPRLPRPRPRPRQDPRP` ? 0.452

Fill blank: measured shrunken log2 fold change of the sequence `RRIRGRPPRLPRPRPRPRDLPRP` is ____. 0.473

Please report the recorded shrunken log2 fold change for `RRIRTRPPRLPRPRPRPTDLPRP` . -0.0718

// shrunken log2 fold change lookup, key: `RRIRARPPRLPRPRPRPPHKPRP` 0.996

Which measured shrunken log2 fold change value corresponds to `RRIRYRPPRLPRPRPRPAFQPRP` ? -0.00804

Consider the sequence shown here: `RRIRYRPPRLPRPRPRPRQDPRP` What is its recorded shrunken log2 fold change? -0.216

Would you kindly share the measured shrunken log2 fold change for `RRIRQRPPRLPRPRPRPWQNPRP` ? 0.0546

What does the record list as shrunken log2 fold change for `RRIRIRPPRLPRPRPRPQKGPRP` ? -0.33

Return reported shrunken log2 fold change; argument: `RRIRMRPPRLPRPRPRPAWNPRP` 0.43

If you can, please state the reported shrunken log2 fold change value of `RRIRWRPPRLPRPRPRPVNRPRP` . -0.00204

Given the entry `RRIRTRPPRLPRPRPRPVKFPRP` , report its measured shrunken log2 fold change. -0.0819

shrunken log2 fold change lookup needed for `RRIRNRPPRLPRPRPRPTWNPRP` , thanks. -0.0528

Please give the measured shrunken log2 fold change for this sequence: `RRIRYRPPRLPRPRPRPKQIPRP` -0.456

Recorded shrunken log2 fold change of `RRIRHRPPRLPRPRPRPMDKPRP` , please. -0.123

Name the recorded shrunken log2 fold change for `RRIRARPPRLPRPRPRPTRAPRP` . 1

// shrunken log2 fold change lookup, key: `RRIRVRPPRLPRPRPRPRGGPRP` 0.609

Please report the recorded shrunken log2 fold change for `RRIRWRPPRLPRPRPRPEIHPRP` . -0.0167

What value of shrunken log2 fold change has been recorded for this entry: `RRIRSRPPRLPRPRPRPNTGPRP` -0.336

Which shrunken log2 fold change value belongs to `RRIRNRPPRLPRPRPRPDSGPRP` ? -0.166

Fill blank: measured shrunken log2 fold change of the sequence `RRIRLRPPRLPRPRPRPFITPRP` is ____. -0.35

Look up shrunken log2 fold change: `RRIRWRPPRLPRPRPRPDLYPRP` 0.0586

Consider the sequence shown here: `RRIRRRPPRLPRPRPRPYSYPRP` What is its recorded shrunken log2 fold change? -0.0587

Consider the sequence shown here: `RRIRFRPPRLPRPRPRPPVHPRP` What is its recorded shrunken log2 fold change? 0.119

Fill in: shrunken log2 fold change of `RRIRFRPPRLPRPRPRPLRAPRP` is ___ 0.821

Find the recorded shrunken log2 fold change belonging to `RRIRLRPPRLPRPRPRPTHFPRP` and report it. 0.362

# lookup: shrunken log2 fold change of `RRIRGRPPRLPRPRPRPDGIPRP` -0.0219

Give its shrunken log2 fold change value. Item: `RRIRCRPPRLPRPRPRPMQSPRP` -0.0765

Tell me the measured shrunken log2 fold change of `RRIRPRPPRLPRPRPRPKQEPRP` , please. 0.138
